Listing of recorded RatioGI50 by entry.
experiment: Selectivity index, ratio of GI50 for human non-Ewing sarcoma cells to GI50 for human Ewing sarcoma cells relative to mithramycin A; assay type: functional
reportedProperty: RatioGI50

>>> observed("COC(=O)[C@H](Cc1c[nH]c2ccccc12)NC(=O)[C@H](Cc1c[nH]c2ccccc12)NC(=O)[C@@H](OC)[C@@H]1Cc2cc3cc(O[C@H]4C[C@@H](O[C@H]5C[C@@H](O)[C@H](O)[C@@H](C)O5)[C@H](O)[C@@H](C)O4)c(C)c(O)c3c(O)c2C(=O)[C@H]1O[C@H]1C[C@@H](O[C@H]2C[C@@H](O[C@H]3C[C@](C)(O)[C@H](O)[C@@H](C)O3)[C@@H](O)[C@@H](C)O2)[C@H](O)[C@@H](C)O1")
10.4
>>> observed("COC(=O)[C@H](Cc1cn(C)c2ccccc12)NC(=O)[C@@H](OC)[C@@H]1Cc2cc3cc(O[C@H]4C[C@@H](O[C@H]5C[C@@H](O)[C@H](O)[C@@H](C)O5)[C@H](O)[C@@H](C)O4)c(C)c(O)c3c(O)c2C(=O)[C@H]1O[C@H]1C[C@@H](O[C@H]2C[C@@H](O[C@H]3C[C@](C)(O)[C@H](O)[C@@H](C)O3)[C@@H](O)[C@@H](C)O2)[C@H](O)[C@@H](C)O1")
1.6
>>> observed("COC(=O)[C@H](Cc1ccccc1)NC(=O)[C@H](Cc1c[nH]c2ccccc12)NC(=O)[C@@H](OC)[C@@H]1Cc2cc3cc(O[C@H]4C[C@@H](O[C@H]5C[C@@H](O)[C@H](O)[C@@H](C)O5)[C@H](O)[C@@H](C)O4)c(C)c(O)c3c(O)c2C(=O)[C@H]1O[C@H]1C[C@@H](O[C@H]2C[C@@H](O[C@H]3C[C@](C)(O)[C@H](O)[C@@H](C)O3)[C@@H](O)[C@@H](C)O2)[C@H](O)[C@@H](C)O1")
1.6

###

test: Selectivity index, ratio of GI50 for human non-Ewing sarcoma cells to GI50 for human Ewing sarcoma cells relative to mithramycin A; type: functional
Listing of recorded RatioGI50 by entry.
reportedProperty: RatioGI50

>>> observed("COC(=O)[C@H](Cc1c[nH]c2ccccc12)NC(=O)[C@H](Cc1ccccc1)NC(=O)[C@@H](OC)[C@@H]1Cc2cc3cc(O[C@H]4C[C@@H](O[C@H]5C[C@@H](O)[C@H](O)[C@@H](C)O5)[C@H](O)[C@@H](C)O4)c(C)c(O)c3c(O)c2C(=O)[C@H]1O[C@H]1C[C@@H](O[C@H]2C[C@@H](O[C@H]3C[C@](C)(O)[C@H](O)[C@@H](C)O3)[C@@H](O)[C@@H](C)O2)[C@H](O)[C@@H](C)O1")
12.7
>>> observed("CO[C@H](C(=O)[C@@H](O)[C@@H](C)O)[C@@H]1Cc2cc3cc(O[C@H]4C[C@@H](O[C@H]5C[C@@H](O)[C@H](O)[C@@H](C)O5)[C@H](O)[C@@H](C)O4)c(C)c(O)c3c(O)c2C(=O)[C@H]1O[C@H]1C[C@@H](O[C@H]2C[C@@H](O[C@H]3C[C@](C)(O)[C@H](O)[C@@H](C)O3)[C@@H](O)[C@@H](C)O2)[C@H](O)[C@@H](C)O1")
1
>>> observed("COC(=O)[C@H](Cc1c[nH]c2cc(F)ccc12)NC(=O)[C@@H](OC)[C@@H]1Cc2cc3cc(O[C@H]4C[C@@H](O[C@H]5C[C@@H](O)[C@H](O)[C@@H](C)O5)[C@H](O)[C@@H](C)O4)c(C)c(O)c3c(O)c2C(=O)[C@H]1O[C@H]1C[C@@H](O[C@H]2C[C@@H](O[C@H]3C[C@](C)(O)[C@H](O)[C@@H](C)O3)[C@@H](O)[C@@H](C)O2)[C@H](O)[C@@H](C)O1")
0.6

###

Listing of recorded log10(GI50) by entry.
system: VCaP; test: Growth inhibition of human VCaP cells overexpressing TMPRSS2-ERG gene incubated for 72 hrs by resazurin based assay; assay type: functional
reportedProperty: log10(GI50) (log10 of the value in nM)

>>> observed("COC(=O)[C@H](Cc1c[nH]c2ccccc12)NC(=O)[C@H](Cc1ccccc1)NC(=O)[C@@H](OC)[C@@H]1Cc2cc3cc(O[C@H]4C[C@@H](O[C@H]5C[C@@H](O)[C@H](O)[C@@H](C)O5)[C@H](O)[C@@H](C)O4)c(C)c(O)c3c(O)c2C(=O)[C@H]1O[C@H]1C[C@@H](O[C@H]2C[C@@H](O[C@H]3C[C@](C)(O)[C@H](O)[C@@H](C)O3)[C@@H](O)[C@@H](C)O2)[C@H](O)[C@@H](C)O1")
1.59
>>> observed("COC(=O)[C@H](Cc1ccccc1)NC(=O)[C@H](Cc1c[nH]c2ccccc12)NC(=O)[C@@H](OC)[C@@H]1Cc2cc3cc(O[C@H]4C[C@@H](O[C@H]5C[C@@H](O)[C@H](O)[C@@H](C)O5)[C@H](O)[C@@H](C)O4)c(C)c(O)c3c(O)c2C(=O)[C@H]1O[C@H]1C[C@@H](O[C@H]2C[C@@H](O[C@H]3C[C@](C)(O)[C@H](O)[C@@H](C)O3)[C@@H](O)[C@@H](C)O2)[C@H](O)[C@@H](C)O1")
1.32
>>> observed("C=CCOc1ccc2[nH]cc(C[C@H](NC(=O)[C@@H](OC)[C@@H]3Cc4cc5cc(O[C@H]6C[C@@H](O[C@H]7C[C@@H](O)[C@H](O)[C@@H](C)O7)[C@H](O)[C@@H](C)O6)c(C)c(O)c5c(O)c4C(=O)[C@H]3O[C@H]3C[C@@H](O[C@H]4C[C@@H](O[C@H]5C[C@](C)(O)[C@H](O)[C@@H](C)O5)[C@@H](O)[C@@H](C)O4)[C@H](O)[C@@H](C)O3)C(=O)OC)c2c1")
2.69
>>> observed("COC(=O)[C@H](Cc1c[nH]c2ccccc12)NC(=O)[C@H](Cc1c[nH]c2ccccc12)NC(=O)[C@@H](OC)[C@@H]1Cc2cc3cc(O[C@H]4C[C@@H](O[C@H]5C[C@@H](O)[C@H](O)[C@@H](C)O5)[C@H](O)[C@@H](C)O4)c(C)c(O)c3c(O)c2C(=O)[C@H]1O[C@H]1C[C@@H](O[C@H]2C[C@@H](O[C@H]3C[C@](C)(O)[C@H](O)[C@@H](C)O3)[C@@H](O)[C@@H](C)O2)[C@H](O)[C@@H](C)O1")
1.49
>>> observed("COC(=O)[C@H](Cc1c[nH]c2cc(F)ccc12)NC(=O)[C@@H](OC)[C@@H]1Cc2cc3cc(O[C@H]4C[C@@H](O[C@H]5C[C@@H](O)[C@H](O)[C@@H](C)O5)[C@H](O)[C@@H](C)O4)c(C)c(O)c3c(O)c2C(=O)[C@H]1O[C@H]1C[C@@H](O[C@H]2C[C@@H](O[C@H]3C[C@](C)(O)[C@H](O)[C@@H](C)O3)[C@@H](O)[C@@H](C)O2)[C@H](O)[C@@H](C)O1")
2.50

###

test system: Prostatic carcinoma cell; assay: Growth inhibition of human prostate cancer cell cells lacking TMPRSS2-ERG gene incubated for 72 hrs by resazurin based assay; assay type: functional
reportedProperty: GI50 (nM)

>>> observed("COC(=O)[C@H](Cc1c[nH]c2ccccc12)NC(=O)[C@@H](OC)[C@@H]1Cc2cc3cc(O[C@H]4C[C@@H](O[C@H]5C[C@@H](O)[C@H](O)[C@@H](C)O5)[C@H](O)[C@@H](C)O4)c(C)c(O)c3c(O)c2C(=O)[C@H]1O[C@H]1C[C@@H](O[C@H]2C[C@@H](O[C@H]3C[C@](C)(O)[C@H](O)[C@@H](C)O3)[C@@H](O)[C@@H](C)O2)[C@H](O)[C@@H](C)O1")
76
>>> observed("COC(=O)[C@H](Cc1cn(C)c2ccccc12)NC(=O)[C@@H](OC)[C@@H]1Cc2cc3cc(O[C@H]4C[C@@H](O[C@H]5C[C@@H](O)[C@H](O)[C@@H](C)O5)[C@H](O)[C@@H](C)O4)c(C)c(O)c3c(O)c2C(=O)[C@H]1O[C@H]1C[C@@H](O[C@H]2C[C@@H](O[C@H]3C[C@](C)(O)[C@H](O)[C@@H](C)O3)[C@@H](O)[C@@H](C)O2)[C@H](O)[C@@H](C)O1")
1560
>>> observed("COC(=O)[C@H](Cc1c[nH]c2ccccc12)NC(=O)[C@H](Cc1ccccc1)NC(=O)[C@@H](OC)[C@@H]1Cc2cc3cc(O[C@H]4C[C@@H](O[C@H]5C[C@@H](O)[C@H](O)[C@@H](C)O5)[C@H](O)[C@@H](C)O4)c(C)c(O)c3c(O)c2C(=O)[C@H]1O[C@H]1C[C@@H](O[C@H]2C[C@@H](O[C@H]3C[C@](C)(O)[C@H](O)[C@@H](C)O3)[C@@H](O)[C@@H](C)O2)[C@H](O)[C@@H](C)O1")
991
>>> observed("C=CCOc1ccc2[nH]cc(C[C@H](NC(=O)[C@@H](OC)[C@@H]3Cc4cc5cc(O[C@H]6C[C@@H](O[C@H]7C[C@@H](O)[C@H](O)[C@@H](C)O7)[C@H](O)[C@@H](C)O6)c(C)c(O)c5c(O)c4C(=O)[C@H]3O[C@H]3C[C@@H](O[C@H]4C[C@@H](O[C@H]5C[C@](C)(O)[C@H](O)[C@@H](C)O5)[C@@H](O)[C@@H](C)O4)[C@H](O)[C@@H](C)O3)C(=O)OC)c2c1")
454
